# System: MDA-MB-231 (triple-negative breast cancer)
# ASSAY_TEXT: MTT cell viability assay, MDA-MB-231
# Assay type: cell-based, human
# EXPERIMENTAL_CONDITIONS: 24 h incubation, read-out: Cytotoxicity EC50, MDA-MB-231 (TNBC)
MEASURED_ENDPOINT: EC50 (µM)
Answer with a number only, understood to be in µM.

Response field EC50 (MDA-MB-231 (triple-negative breast cancer)) for item CC(=O)OC[C@H]1O[C@@H](SSc2sc(N)nc2-c2ccc(C)cc2)[C@H](OC(C)=O)[C@@H](OC(C)=O)[C@@H]1OC(C)=O [Compound 4e] : 15

###

Hi there, I'd appreciate the recorded Inhibition of Biofilm Formation MIC50, E. coli for every entry that follows.
# Test system: Escherichia coli (VKPM B-7935)
# ASSAY_TEXT: Inhibition of biofilm formation (MTT)
# Type: cell-based
# EXPERIMENTAL_CONDITIONS: 24 h
Answer with a number only, understood to be in µM.

Response field Inhibition of Biofilm Formation MIC50, E. coli (Escherichia coli (VKPM B-7935)) for item Nc1nc(-c2ccc(Cl)cc2)c(SS[C@@H]2O[C@H](CO)[C@@H](O)[C@H](O)[C@H]2O)s1 [Compound 5d] : 6.00

Response field Inhibition of Biofilm Formation MIC50, E. coli (Escherichia coli (VKPM B-7935)) for item Cl.Nc1nc(-c2ccc(Br)cc2)c(SS[C@@H]2OC[C@@H](O)[C@H](O)[C@H]2O)s1 [Compound 5h] : 8.92

Response field Inhibition of Biofilm Formation MIC50, E. coli (Escherichia coli (VKPM B-7935)) for item CC(=O)OC[C@H]1O[C@@H](SSc2sc(N)nc2-c2ccc(Br)cc2)[C@H](OC(C)=O)[C@@H](OC(C)=O)[C@@H]1OC(C)=O [Compound 4c] : 8.04

Response field Inhibition of Biofilm Formation MIC50, E. coli (Escherichia coli (VKPM B-7935)) for item Cc1ccc(-c2nc(N)sc2SS[C@@H]2OC[C@@H](O)[C@H](O)[C@H]2O)cc1.Cl [Compound 5j] : 5.62

###

# ASSAY_TEXT: MTT cell viability assay, BEAS-2B normal cells
# Type: cell-based
# EXPERIMENTAL_CONDITIONS: human, BEAS-2B normal bronchial epithelial cells, 24 h incubation, read-out: Cytotoxicity EC50, BEAS 2B
MEASURED_ENDPOINT: EC50 at 24 h (µM)
Answer with a number only, understood to be in µM.

Summary for this molecule, Nc1nc(-c2ccccc2)c(SS[C@@H]2OC[C@@H](O)[C@H](O)[C@H]2O)s1 : EC50 at 24 h is 22

Summary for this molecule, Nc1nc(-c2ccccc2)c(SS[C@@H]2O[C@H](CO)[C@@H](O)[C@H](O)[C@H]2O)s1 : EC50 at 24 h is 20.8

Summary for this molecule, Cc1ccc(-c2nc(N)sc2SS[C@@H]2O[C@H](CO)[C@@H](O)[C@H](O)[C@H]2O)cc1 : EC50 at 24 h is 22.6

Summary for this molecule, COc1ccc(-c2nc(N)sc2SS[C@@H]2OC[C@@H](OC(C)=O)[C@H](OC(C)=O)[C@H]2OC(C)=O)cc1 : EC50 at 24 h is 23.5

Summary for this molecule, COc1ccc(-c2nc(N)sc2SS[C@@H]2O[C@H](COC(C)=O)[C@@H](OC(C)=O)[C@H](OC(C)=O)[C@H]2OC(C)=O)cc1 : EC50 at 24 h is 19.9
